compounds and their reported ERP observations
- Test system: Canis familiaris
- ASSAY_PROTOCOL: Maximum increase in ERP(ms) after oral dose of the compound( 0.3 mg/kg) in mongrel dogs at a basic cycle length of 250 ms.
- Type: functional, Canis lupus familiaris
// print number alone

Would you please look over these solved cases?
{"columns": ["MOLECULE_SMILES", "ERP observations"],
 "data": [
  ["CSc1ccc([C@@H]2N=C(OCc3ccc(NS(C)(=O)=O)cc3)N(C)Cc3ccccc32)cc1.Cl", 11],
  ["CN1Cc2ccccc2[C@H](c2ccccc2)N=C1OCc1ccc(NS(C)(=O)=O)cc1.O=C(O)/C=C/C(=O)O", 18]
]}

Suppose we examine the compound CN1Cc2ccccc2[C@@H](c2ccc(F)cc2F)N=C1CCc1ccc(NS(C)(=O)=O)cc1.Cl ; what ERP observations value has been reported?
22

Quick one: ERP observations for CSc1ccc([C@H]2N=C(OCc3ccc(NS(C)(=O)=O)cc3)N(C)Cc3ccccc32)cc1.Cl ?
28

Query (compound): CN1Cc2ccccc2[C@H](c2ccc(F)cc2F)N=C1CCc1ccc(NS(C)(=O)=O)cc1.Cl ; field requested: ERP observations
21

* * *

- STUDY_SYSTEM: Sodium channel protein type 5 subunit alpha (Homo sapiens)
- Sequence (Q14524 whole entry): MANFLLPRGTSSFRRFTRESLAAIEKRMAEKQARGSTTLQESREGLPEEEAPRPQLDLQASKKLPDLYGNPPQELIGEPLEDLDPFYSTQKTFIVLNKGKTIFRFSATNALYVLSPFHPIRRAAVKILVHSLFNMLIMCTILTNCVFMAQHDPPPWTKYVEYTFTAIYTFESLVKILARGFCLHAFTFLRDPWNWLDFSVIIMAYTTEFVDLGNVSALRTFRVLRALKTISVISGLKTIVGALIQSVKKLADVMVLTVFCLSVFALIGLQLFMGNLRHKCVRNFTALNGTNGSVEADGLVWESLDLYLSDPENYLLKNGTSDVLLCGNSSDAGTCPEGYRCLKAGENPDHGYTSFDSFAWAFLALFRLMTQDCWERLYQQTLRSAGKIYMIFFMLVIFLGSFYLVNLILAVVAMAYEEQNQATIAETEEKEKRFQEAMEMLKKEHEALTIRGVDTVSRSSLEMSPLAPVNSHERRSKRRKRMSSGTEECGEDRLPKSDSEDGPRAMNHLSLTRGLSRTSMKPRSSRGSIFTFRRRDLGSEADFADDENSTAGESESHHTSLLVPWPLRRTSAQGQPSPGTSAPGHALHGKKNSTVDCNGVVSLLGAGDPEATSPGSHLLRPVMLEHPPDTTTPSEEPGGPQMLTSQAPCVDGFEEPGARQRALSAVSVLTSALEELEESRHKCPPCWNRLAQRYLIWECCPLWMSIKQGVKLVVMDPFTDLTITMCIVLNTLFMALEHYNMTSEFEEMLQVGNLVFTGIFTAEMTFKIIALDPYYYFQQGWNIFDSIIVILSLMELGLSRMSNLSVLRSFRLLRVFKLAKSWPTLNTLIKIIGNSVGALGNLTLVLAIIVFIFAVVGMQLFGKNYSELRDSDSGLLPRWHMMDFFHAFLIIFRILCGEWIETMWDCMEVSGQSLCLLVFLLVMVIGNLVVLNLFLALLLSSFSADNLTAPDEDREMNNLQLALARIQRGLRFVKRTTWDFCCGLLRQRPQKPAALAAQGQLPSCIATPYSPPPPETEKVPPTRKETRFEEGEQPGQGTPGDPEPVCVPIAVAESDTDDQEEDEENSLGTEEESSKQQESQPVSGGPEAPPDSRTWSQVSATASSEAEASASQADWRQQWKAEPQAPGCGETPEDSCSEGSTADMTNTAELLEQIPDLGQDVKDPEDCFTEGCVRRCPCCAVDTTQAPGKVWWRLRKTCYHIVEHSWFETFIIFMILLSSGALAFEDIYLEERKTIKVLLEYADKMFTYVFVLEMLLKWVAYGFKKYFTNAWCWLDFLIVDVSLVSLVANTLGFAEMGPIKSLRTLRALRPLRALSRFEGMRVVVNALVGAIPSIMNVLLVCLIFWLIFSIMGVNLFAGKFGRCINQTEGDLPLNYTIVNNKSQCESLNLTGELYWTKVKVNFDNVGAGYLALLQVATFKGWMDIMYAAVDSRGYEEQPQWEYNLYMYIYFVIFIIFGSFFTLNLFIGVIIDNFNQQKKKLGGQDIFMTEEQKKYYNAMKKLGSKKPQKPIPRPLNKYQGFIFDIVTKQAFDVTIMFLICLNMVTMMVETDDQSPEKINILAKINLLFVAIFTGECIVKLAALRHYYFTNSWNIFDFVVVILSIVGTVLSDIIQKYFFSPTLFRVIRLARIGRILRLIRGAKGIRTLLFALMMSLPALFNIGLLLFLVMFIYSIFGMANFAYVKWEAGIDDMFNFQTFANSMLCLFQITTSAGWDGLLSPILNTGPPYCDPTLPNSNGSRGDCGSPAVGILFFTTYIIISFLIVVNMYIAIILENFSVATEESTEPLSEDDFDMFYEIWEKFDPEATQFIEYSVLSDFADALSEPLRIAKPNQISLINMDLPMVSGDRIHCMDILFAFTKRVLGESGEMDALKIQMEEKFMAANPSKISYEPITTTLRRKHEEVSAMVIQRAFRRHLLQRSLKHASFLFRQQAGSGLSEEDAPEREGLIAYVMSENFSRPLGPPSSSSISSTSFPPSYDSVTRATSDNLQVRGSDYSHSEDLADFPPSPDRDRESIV
- ASSAY_PROTOCOL: Blockade of Na+ current in frog oocytes expressing human cardiac sodium channel (HH1)
Recorded IC50, one value per entry.

Past entries and their recorded results:
{"columns": ["MOLECULE_SMILES", "IC50"],
 "data": [
  ["CN1Cc2ccccc2[C@@H](c2ccccc2)N=C1OCc1ccc(NS(C)(=O)=O)cc1.O=C(O)/C=C/C(=O)O", "126 µM"],
  ["CN1Cc2ccccc2[C@H](c2ccc(F)cc2F)N=C1CCc1ccc(NS(C)(=O)=O)cc1.Cl", "> 100 µM"],
  ["CN1Cc2ccccc2[C@H](c2ccccc2)N=C1OCc1ccc(NS(C)(=O)=O)cc1.O=C(O)/C=C/C(=O)O", "> 30 µM"],
  ["CSc1ccc([C@@H]2N=C(OCc3ccc(NS(C)(=O)=O)cc3)N(C)Cc3ccccc32)cc1.Cl", "> 30 µM"]
]}

I'd like to know its IC50. The molecule in question is CN1Cc2ccccc2[C@@H](c2ccc(F)cc2F)N=C1CCc1ccc(NS(C)(=O)=O)cc1.Cl
> 100 µM
